Item-by-item account of IC50
# Assay name: Inhibition of Lipoxygenase 1B
Endpoint name: IC50

>>> df
                      smiles_representation  endpoint_name  value_observed
0  Oc1cc(O)c2c(c1)O[C@H](c1ccc(O)c(Oc3cc(O)c4c(c3)O[C@H](c3ccc(O)c(O)c3)[C@H](O)C4)c1)[C@H](O)C2           IC50         13.5 µM
1  Oc1cc(O)c2c(c1)O[C@H](c1ccc(O)c(Oc3cc([C@H]4Oc5cc(O)cc(O)c5C[C@@H]4O)ccc3O)c1)[C@@H](O)C2           IC50         19.7 µM
2      O=c1cc(-c2ccccc2)oc2cc(O)c(O)c(O)c12           IC50         22.6 µM
3  CC(C)(O)/C=C/C1=CC(=O)[C@H](O)C[C@]1(C)O           IC50          150 µM
